Property: Necroptosis inhibition assay (Rescue %) 10 μM; scope: individual compounds
tested on: FADD−/− Jurkat cells; assay: Necroptosis inhibition assay, TNF-α-induced necroptosis (CellTiter-Glo 2.0); format: cell-based, human; conditions: compound 10 μM; TNF-α 15 ng/mL, FADD−/− Jurkat cells
Write the number in % without appending the unit.

Sample records with Necroptosis inhibition assay (Rescue %) 10 μM:
Nc1ncc(-c2cnn(C3CCN(CCC4CCN(C(=O)C5CCN(C6=CC(=O)N(C7CCC(=O)NC7=O)C6=O)CC5)CC4)CC3)c2)nc1C(=O)O[C@@H](C(=O)Nc1ccc(F)cc1)c1ccccc1 (some centres unmarked) ... 15.69
Nc1ncc(-c2cnn(C3CCN(CCC4CCN(C(=O)c5ccc(C(=O)NC6CCC(=O)NC6=O)cc5)CC4)CC3)c2)nc1C(=O)O[C@@H](C(=O)Nc1ccc(F)cc1)c1ccccc1 (some centres unmarked) ... 21.93
Nc1ncc(-c2cnn(C3CCN(CCCN4CCN(C(=O)CCc5ccc6c(c5)CN(C5CCC(=O)NC5=O)C6=O)CC4)CC3)c2)nc1C(=O)O[C@@H](C(=O)Nc1ccc(F)cc1)c1ccccc1 (some centres unmarked) ... 25.23
Nc1ncc(-c2cnn(C3CCN(C4CC5(CCN(CC6CCN(C(=O)c7ccc8c(c7)CN(C7CCC(=O)NC7=O)C8=O)CC6)CC5)C4)CC3)c2)nc1C(=O)O[C@@H](C(=O)Nc1ccc(F)cc1)c1ccccc1 (some centres unmarked) ... 31.41

Field: next compound
Output Necroptosis inhibition assay (Rescue %) 10 μM of Nc1ncc(-c2cnn(C3CCN(CCC4CCN(c5cc6c(cc5F)C(=O)N(C5CCC(=O)NC5=O)C6=O)CC4)CC3)c2)nc1C(=O)O[C@@H](C(=O)Nc1ccc(F)cc1)c1ccccc1 (some centres unmarked)
36.11

###

Record: Kd reported on UniProt Q8NB16.
Sequence (Q8NB16 whole entry): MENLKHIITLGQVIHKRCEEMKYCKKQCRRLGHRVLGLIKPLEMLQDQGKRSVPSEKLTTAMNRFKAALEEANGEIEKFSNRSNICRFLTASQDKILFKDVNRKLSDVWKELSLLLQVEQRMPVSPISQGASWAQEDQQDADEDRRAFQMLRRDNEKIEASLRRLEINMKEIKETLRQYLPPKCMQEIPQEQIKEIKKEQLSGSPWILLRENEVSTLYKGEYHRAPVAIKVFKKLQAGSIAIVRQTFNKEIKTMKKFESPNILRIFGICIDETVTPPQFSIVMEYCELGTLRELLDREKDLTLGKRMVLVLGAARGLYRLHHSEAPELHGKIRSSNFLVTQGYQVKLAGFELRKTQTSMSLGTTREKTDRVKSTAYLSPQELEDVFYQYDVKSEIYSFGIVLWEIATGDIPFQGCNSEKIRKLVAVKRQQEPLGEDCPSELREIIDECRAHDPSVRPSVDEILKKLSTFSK
Structures can show the parent of a compound that is named as a salt.

Sample records with Kd:
Nc1ncc(-c2cnn(C3CCN(CC4CCN(C(=O)CNc5ccc6c(c5)C(=O)N(C5CCC(=O)NC5=O)C6=O)CC4)CC3)c2)nc1C(=O)O[C@@H](C(=O)Nc1ccc(F)cc1)c1ccccc1 (some centres unmarked) ... 2.8 nM
Nc1ncc(-c2cnn(C3CCN(CC4CCN(CC(=O)NCCNc5cccc6c5C(=O)N(C5CCC(=O)NC5=O)C6=O)CC4)CC3)c2)nc1C(=O)OC(C(=O)Nc1ccc(F)cc1)c1ccccc1 (centres unmarked) ... 1.6 nM
Nc1ncc(-c2cnn(C3CCN(CC4CCN(C(=O)C5CCN(c6cccc7c6C(=O)N(C6CCC(=O)NC6=O)C7=O)CC5)CC4)CC3)c2)nc1C(=O)N[C@@H](C(=O)Nc1ccc(F)cc1)c1ccccc1 (some centres unmarked) ... 140 nM
Nc1ncc(C2=CCNCC2)nc1C(=O)O[C@@H](C(=O)Nc1ccc(F)cc1)c1ccccc1 [TDH-068, hydrochloride] ... 380 nM

Field: next compound
Give Kd; test system UniProt Q8NB16; compound Nc1ncc(-c2cnn(C3CCN(CC4CN(C(=O)CNc5ccc6c(c5)C(=O)N(C5CCC(=O)NC5=O)C6=O)CCO4)CC3)c2)nc1C(=O)OC(C(=O)Nc1ccc(F)cc1)c1ccccc1 (centres unmarked)
1.6 nM

###

Property: Necroptosis inhibition assay (Rescue %) 1 μM; scope: individual molecules
system: FADD−/− Jurkat cells; test: Necroptosis inhibition assay, TNF-α-induced necroptosis (CellTiter-Glo 2.0); type: cell-based, human; details: compound 1 μM; TNF-α 15 ng/mL
Note to self: number, then unit, no commentary.

Sample records with Necroptosis inhibition assay (Rescue %) 1 μM:
Cl.Nc1ncc(-c2cnn(C3CCNCC3)c2)cc1C(=O)O[C@@H](C(=O)Nc1ccc(F)cc1)c1ccccc1 [TDH-112] ... 20.24%
Nc1ncc(-c2cnn(C3CCN(CC4CCN(C(=O)C5CCN(c6ccc7c(c6)C(=O)N(C6CCC(=O)NC6=O)C7=O)CC5)CC4)CC3)c2)nc1C(=O)O[C@@H](C(=O)Nc1ccc(F)cc1)c1ccccc1 (stereo partly shown) [TDH-147] ... 84.3%
Nc1ncc(-c2ccc(N3CCN(CCOCCOCCNC(=O)COc4ccc5c(c4)C(=O)N(C4CCC(=O)NC4=O)C5=O)CC3)nc2)nc1C(=O)OC(C(=O)Nc1ccc(F)cc1)c1ccccc1 (stereo not shown) [TDH-262] ... 22.59%
Nc1ncc(-c2cnn(C3CCN(CCC4CCN(C(=O)CNc5ccc6c(c5)C(=O)N(C5CCC(=O)NC5=O)C6=O)CC4)CC3)c2)nc1C(=O)O[C@@H](C(=O)Nc1ccc(F)cc1)c1ccccc1 (stereo partly shown) [TDH-199] ... 36.93%
Nc1ncc(-c2cnn(C3CCN(C(=O)c4cn(C5CCN(c6ccc7c(c6)C(=O)N(C6CCC(=O)NC6=O)C7=O)CC5)cn4)CC3)c2)nc1C(=O)O[C@@H](C(=O)Nc1ccc(F)cc1)c1ccccc1 (stereo partly shown) [TDH-365] ... 19.16%
Cc1ncsc1-c1ccc(CNC(=O)[C@@H]2C[C@@H](O)CN2C(=O)[C@@H](NC(=O)CN2CCC(CN3CCC(n4cc(-c5cnc(N)c(C(=O)O[C@@H](C(=O)Nc6ccc(F)cc6)c6ccccc6)n5)cn4)CC3)CC2)C(C)(C)C)cc1 [TDH-211] ... 29.87%
Nc1ncc(-c2cnn(C3CCN(CCOCCNC(=O)C4CN(c5cccc6c5C(=O)N(C5CCC(=O)NC5=O)C6=O)C4)CC3)c2)nc1C(=O)O[C@@H](C(=O)Nc1ccc(F)cc1)c1ccccc1 (stereo partly shown) [TDH-126] ... 19.35%
Nc1ncc(-c2cnn(C3CCN(C(=O)c4cn(C5CCN(C(=O)C6CCN(c7cccc8c7C(=O)N(C7CCC(=O)NC7=O)C8=O)CC6)CC5)cn4)CC3)c2)nc1C(=O)O[C@@H](C(=O)Nc1ccc(F)cc1)c1ccccc1 (stereo partly shown) [TDH-362] ... 17.89%

Output Necroptosis inhibition assay (Rescue %) 1 μM of Nc1ncc(-c2cn(C3CCN(CC4CCN(c5cccc6c5C(=O)N(C5CCC(=O)NC5=O)C6=O)CC4)CC3)nn2)nc1C(=O)OC(C(=O)Nc1ccc(F)cc1)c1ccccc1 (stereo not shown) [TDH-225]
55.04%

###

tested on: FADD−/− Jurkat cells; experiment: Necroptosis inhibition assay, TNF-α-induced necroptosis (CellTiter-Glo 2.0); assay type: cell-based, human; conditions: compound 1 μM; TNF-α 15 ng/mL
Property: Necroptosis inhibition assay (Rescue %) 1 μM; scope: individual compounds

Nc1ncc(-c2cnn(C3CCN(C[C@H]4CC[C@H](CNC(=O)COc5ccc6c(c5)C(=O)N(C5CCC(=O)NC5=O)C6=O)CC4)CC3)c2)nc1C(=O)O[C@@H](C(=O)Nc1ccc(F)cc1)c1ccccc1 (some centres unmarked) ... 57.41%
Nc1ncc(-c2cnn(C3CCN(CCCCCCNC(=O)COc4ccc5c(c4)C(=O)N(C4CCC(=O)NC4=O)C5=O)CC3)c2)nc1C(=O)O[C@@H](C(=O)Nc1ccc(F)cc1)c1ccccc1 (some centres unmarked) ... 52.37%
Nc1ncc(-c2cnn([C@H]3CCN(CCOCCOCCNC(=O)CNc4ccc5c(c4)C(=O)N(C4CCC(=O)NC4=O)C5=O)C3)c2)nc1C(=O)OC(C(=O)Nc1ccc(F)cc1)c1ccccc1 (some centres unmarked) ... 23.38%
CC(C)(C)OC(=O)N1CCC(n2cc(-c3cnc(N)c(C(=O)N[C@@H](C(=O)Nc4ccc(F)cc4)c4ccccc4)n3)cn2)CC1 ... 3.54%
Nc1ncc(-c2cnn(C3CCN(C(=O)COCCOCCNC(=O)C4CN(c5ccc6c(c5)C(=O)N(C5CCC(=O)NC5=O)C6=O)C4)CC3)c2)nc1C(=O)O[C@@H](C(=O)Nc1ccc(F)cc1)c1ccccc1 (some centres unmarked) ... 43.97%
Nc1ncc(-c2cn(C3CCN(CC4CCN(c5ccc6c(c5)C(=O)N(C5CCC(=O)NC5=O)C6=O)CC4)CC3)nn2)nc1C(=O)OC(C(=O)Nc1ccc(F)cc1)c1ccccc1 (centres unmarked) ... 36.17%
Nc1ncc(-c2cnn(C3CCN(CCC4CCN(C(=O)C5CCN(c6ccc7c(c6)C(=O)N(C6CCC(=O)NC6=O)C7=O)CC5)CC4)CC3)c2)nc1C(=O)O[C@@H](C(=O)Nc1ccc(F)cc1)c1ccccc1 (some centres unmarked) ... 56.07%
Nc1ncc(-c2cnn([C@@H]3CCN(CC4CCN(C(=O)COc5cccc6c5C(=O)N(C5CCC(=O)NC5=O)C6=O)CC4)C3)c2)nc1C(=O)OC(C(=O)Nc1ccc(F)cc1)c1ccccc1 (some centres unmarked) ... 71.05%
Nc1ncc(-c2cnn([C@@H]3CCN(CC4CCN(C(=O)COc5ccc6c(c5)C(=O)N(C5CCC(=O)NC5=O)C6=O)CC4)C3)c2)nc1C(=O)OC(C(=O)Nc1ccc(F)cc1)c1ccccc1 (some centres unmarked) ... 70.93%
Nc1ncc(-c2cnn(C3CCN(CC4CN(C(=O)COc5cccc6c5C(=O)N(C5CCC(=O)NC5=O)C6=O)CCO4)CC3)c2)nc1C(=O)OC(C(=O)Nc1ccc(F)cc1)c1ccccc1 (centres unmarked) ... 76.28%

Field: next compound
Give Necroptosis inhibition assay (Rescue %) 1 μM; test system FADD−/− Jurkat cells; compound Nc1ncc(-c2cnn(C3CCN(CC4CCN(C(=O)C5CCN(c6cccc7c6C(=O)N(C6CCC(=O)NC6=O)C7=O)CC5)CC4)CC3)c2)nc1C(=O)N[C@@H](C(=O)Nc1ccc(F)cc1)c1ccccc1 (some centres unmarked)
7.73%
